# Method notes: Phase 1 single escalating intravenous dose safety and pharmacokinetics (Example 6)
# Format: in vivo, human
# Conditions: male, human, whole blood; single IV bolus 300 μg, mean ± SD
Readout name: AUC(0-t) (ng·h/mL)
Kindly answer with a numeric value in ng·h/mL, unit omitted.

Ask: Provide measured AUC(0-t) value, entry: CO[C@H]1C[C@@H]2CC[C@@H](C)[C@@](O)(O2)C(=O)C(=O)N2CCCC[C@H]2C(=O)O[C@H]([C@H](C)C[C@@H]2CC[C@H](n3cnnn3)[C@H](OC)C2)CC(=O)[C@H](C)/C=C(\C)[C@@H](O)[C@@H](OC)C(=O)[C@H](C)C[C@H](C)/C=C/C=C/C=C/1C [zotarolimus]
Result: 77.8
